# experimental conditions: High dose (1000 mg/kg bw); 12h urine collections; np = no peak
Counter-ions that a name gives are not always drawn.
reported property: Qualitative Tmax (urine collection with greatest excretion)

compound=COc1ccc(CC(=O)O)cc1O test_result=np
compound="O=C(O)CCc1cccc(O)c1 [3-OH-PPA, 3-hydroxyphenylpropionic acid]" test_result="12 to 24 h"
compound="OC[C@H]1O[C@@H](Oc2cc3c(O)cc(O)cc3[o+]c2-c2cc(O)c(O)c(O)c2)[C@H](O)[C@@H](O)[C@H]1O [Delphinidin Galactoside]" test_result="0 to 12 h"
compound="O=C(O[C@@H]1O[C@H](C(=O)O)[C@@H](O)[C@H](O)[C@H]1O)c1ccccc1 [BzA glucuronide]" test_result="12 to 24 h"
compound="OC[C@H]1O[C@@H](Oc2cc3c(O)cc(O)cc3[o+]c2-c2ccc(O)c(O)c2)[C@H](O)[C@@H](O)[C@H]1O [Cyanidin Galactoside]" test_result="0 to 12 h"
compound="OC[C@H]1O[C@@H](Oc2cc3c(O)cc(O)cc3[o+]c2-c2ccc(O)c(O)c2)[C@H](O)[C@@H](O)[C@@H]1O [Cyanidin Glucoside, cyanidin-3-O-glucoside]" test_result="0 to 12 h"
compound=COc1cc(/C=C/C(=O)O)ccc1O test_result="0 to 24 h"
compound="COc1cc(-c2[o+]c3cc(O)cc(O)c3cc2O[C@@H]2O[C@H](CO)[C@@H](O)[C@H](O)[C@H]2O)cc(OC)c1O [Malvidin Glucoside, malvidin-3-O-glucoside]" test_result="0 to 12 h"
compound="COc1cc(-c2[o+]c3cc(O)cc(O)c3cc2O[C@@H]2O[C@H](CO)[C@H](O)[C@H](O)[C@H]2O)cc(OC)c1O [Malvidin Galactoside, malvidin-3-O-galactoside]" test_result="0 to 12 h"
compound="COc1cc(/C=C/C(=O)O)ccc1OS(=O)(=O)O [Ferulic acid sulfate]" test_result="0 to 12 h"
compound="COc1cc(-c2[o+]c3cc(O)cc(O)c3cc2O[C@@H]2O[C@H](CO)[C@@H](O)[C@H](O)[C@H]2O)cc(O)c1O [Petunidin Glucoside, petunidin-3-O-glucoside]" test_result="0 to 12 h"
compound="COc1ccc(CCC(=O)O)cc1O [3-OH-4-OMe-PPA, 3-hydroxy-4-methoxyphenylpropionic acid]" test_result="12 to 24 h"
compound="OC[C@H]1O[C@@H](Oc2cc3c(O)cc(O)cc3[o+]c2-c2cc(O)c(O)c(O)c2)[C@H](O)[C@@H](O)[C@@H]1O [Delphinidin Glucoside, delphindin-3-O-glucoside]" test_result="0 to 24 h"
compound="COc1cc(-c2[o+]c3cc(O)cc(O)c3cc2OC2OC(CO)C(O)C(O)C2O)cc(O)c1O (centres unmarked) [Petunidin Galactoside, petunidin-3-O-galactoside]" test_result="0 to 12 h"

* * *

Listing of recorded Cmax (nmol excreted) by entry.
# experimental conditions: High dose (1000 mg/kg bw); urine; mean ± SD
reported property: Cmax (nmol excreted)

compound="O=C(O)CNC(=O)c1ccccc1 [Hippuric acid, hippuric acid]" reported_property="Cmax (nmol excreted)" value_units="nmol excreted" test_result=598
compound="COc1cc(C(=O)O)cc(OC)c1O [Syringic acid, syringic acid]" reported_property="Cmax (nmol excreted)" value_units="nmol excreted" test_result=35.1
compound="COc1ccc(CCC(=O)O)cc1O [3-OH-4-OMe-PPA, 3-hydroxy-4-methoxyphenylpropionic acid]" reported_property="Cmax (nmol excreted)" value_units="nmol excreted" test_result=2.48
compound="O=C(O[C@@H]1O[C@H](C(=O)O)[C@@H](O)[C@H](O)[C@H]1O)c1ccccc1 [BzA glucuronide]" reported_property="Cmax (nmol excreted)" value_units="nmol excreted" test_result=0.76
compound="O=C(O)CNC(=O)c1cccc(O)c1 [3-OH-hippuric acid, 3-hydroxyhippuric acid]" reported_property="Cmax (nmol excreted)" value_units="nmol excreted" test_result=26.3
compound="COc1cc(-c2[o+]c3cc(O)cc(O)c3cc2O[C@@H]2O[C@H](CO)[C@H](O)[C@H](O)[C@H]2O)cc(OC)c1O [Malvidin Galactoside, malvidin-3-O-galactoside]" reported_property="Cmax (nmol excreted)" value_units="nmol excreted" test_result=14.2
compound="OC[C@H]1O[C@@H](Oc2cc3c(O)cc(O)cc3[o+]c2-c2cc(O)c(O)c(O)c2)[C@H](O)[C@@H](O)[C@H]1O [Delphinidin Galactoside]" reported_property="Cmax (nmol excreted)" value_units="nmol excreted" test_result=1.74
compound="O=C(O)CCc1cccc(O)c1 [3-OH-PPA, 3-hydroxyphenylpropionic acid]" reported_property="Cmax (nmol excreted)" value_units="nmol excreted" test_result=275

Provenance of the data: paper PMC9558423
